property: melting point

INSERT INTO measurements (compound, property, value_observed) VALUES
  ('Cc1cccc(C2CC2(Cl)Cl)c1Oc1nnc(Cl)cc1O (centres unmarked)', 'melting point', '213 to 215 °C'),
  ('Oc1cc(Cl)nnc1Oc1ccccc1C1CC1(Cl)Cl (centres unmarked)', 'melting point', '158 to 163 °C'),
  ('Oc1cc(Cl)nnc1Oc1ccccc1Br', 'melting point', '201 to 203 °C'),
  ('C#Cc1ccccc1Oc1nnc(Cl)cc1O', 'melting point', '189 to 191 °C');

Let us move to another entry and its melting point.
// query For the compound Cc1ccc(S(=O)(=O)Oc2cc(Cl)nnc2Oc2c(C)cccc2C)cc1 , what melting point is on record?
// result 89 to 90 °C

---

property: melting point

Examples from the recorded data:
INSERT INTO assay_data (molecule, value_observed) VALUES
  ('Oc1cc(Cl)nnc1Oc1cccc2ccoc12', '201 to 202 °C'),
  ('Cc1ccc(S(=O)(=O)Oc2cc(Cl)nnc2Oc2cccc(C(C)(C)C)c2)cc1', '56 to 57 °C'),
  ('Cc1c(Br)ccc(C2CC2)c1Oc1nnc(Cl)cc1O', '234 to 235 °C');

// query For the molecule CC(C)Sc1ccccc1Oc1nnc(Cl)cc1O , what melting point is on record?
// result 176 to 177 °C

// query Now the molecule Oc1cc(Cl)nnc1Oc1ccccc1F
// result 210 to 212 °C

// query Now the molecule Nc1ccccc1OC1(Cl)NN=CC=C1O (stereo not drawn)
// result 249 to 250 °C

// query Now the molecule COc1cccc(C2CC2)c1Oc1nnc(Cl)cc1O
// result 194 to 199 °C

// query Now the molecule Cc1ccccc1Oc1nnc(Cl)cc1OC(=O)c1ccccc1C(=O)Oc1cc(Cl)nnc1Oc1ccccc1C
// result 157 to 158 °C

// query Now the molecule Oc1cc(Cl)nnc1Oc1cccc2c1C1CC1C2 (stereo not drawn)
// result 245 to 247 °C

---

Listing of recorded melting point by entry.

Examples from the recorded data:
INSERT INTO assay_data (molecule, property, value_observed) VALUES
  ('COCc1c(Cl)nnc(Oc2ccccc2C)c1O [Compound No. 2378]', 'melting point', '123 to 126 °C'),
  ('Oc1cc(Cl)nnc1Oc1ccc(F)cc1 [Compound No. 426]', 'melting point', '241 to 248 °C'),
  ('COc1ccc(Br)c(Oc2nnc(Cl)cc2O)c1C [Compound No. 1066]', 'melting point', '246 to 253 °C'),
  ('Oc1cc(Cl)nnc1Oc1cccc2c1CCO2 [Compound No. 528]', 'melting point', '219 to 221 °C');

Let us move to another entry and its melting point.
// query For the molecule CCc1cc(I)ccc1Oc1nnc(Cl)cc1O [Compound No. 562] , what melting point is on record?
// result 199 to 201 °C

---

property: melting point

Examples from the recorded data:
INSERT INTO measurements (molecule, value_observed) VALUES
  ('Oc1cc(Cl)nnc1Oc1cccc(F)c1F', '188 to 193 °C'),
  ('Cc1cccc(C2CC2)c1Oc1nnc(Cl)cc1OC(=O)N(C)c1ccccn1', '140 to 147 °C'),
  ('Cc1ccc(C)c(Oc2nnc(Cl)cc2O)c1Br', '255 to 257 °C'),
  ('Cn1ccc2cccc(Oc3nnc(Cl)cc3O)c21', '219 to 221 °C'),
  ('N#CC1CC1c1ccccc1Oc1nnc(Cl)cc1O (stereo not drawn)', '203 to 207 °C'),
  ('COc1cccc(OC)c1C(=O)Oc1cc(Cl)nnc1Oc1c(C)cccc1C1CC1', '127 to 128 °C');

// query For the molecule Oc1cc(Cl)nnc1Oc1cccc(C(F)(F)F)c1F , what melting point is on record?
// result 185 to 189 °C

// query Now the molecule C=C(C)C(=O)Oc1cc(Cl)nnc1Oc1c(C)cccc1C1CC1
// result 98 to 100 °C

// query Now the molecule Cc1ccc(S(=O)(=O)Oc2cc(Cl)nnc2Oc2ccc(C)cc2C)cc1
// result 80 to 81 °C
